Entry source: ChEMBL document CHEMBL2177045

Target: C-X-C chemokine receptor type 3 (Homo sapiens) (UniProt P49682)
Test: Agonist activity at CXCR3 expressed in HEK293 cells by [35S]GTPgamma binding assay relative to CXCL11
Format: functional, cell-based
Property label: Ratio
The answer should be a number; do not append a unit.

Look over these answered cases.
Compound smiles	Test system	Ratio
CC1(C)[C@H]2CC[C@@H](C[N+](C)(C)Cc3ccc(-c4ccccc4I)cc3)[C@@H]1C2	C-X-C chemokine receptor type 3 (Homo sapiens) (UniProt P49682)	0.83
CC1(C)[C@H]2CC=C(C[N+](C)(C)Cc3ccc(-c4ccccc4Br)cc3)[C@@H]1C2	C-X-C chemokine receptor type 3 (Homo sapiens) (UniProt P49682)	0.95
CC1(C)[C@H]2CC=C(C[N+](C)(C)Cc3ccc(-c4cccc(Br)c4)cc3)[C@@H]1C2	C-X-C chemokine receptor type 3 (Homo sapiens) (UniProt P49682)	0.08

Now consider the entry below.
Lab book: Ratio of `COc1ccccc1-c1ccc(C[N+](C)(C)CC2=CC[C@H]3C[C@@H]2C3(C)C)cc1` noted as 0.36

====

// UniProtKB P49682 pKi records
Lab note: report pKi as minus log10 of the concentration in molar units, number only.

Completed entries (count: 3):
Compound smiles	Recorded number
CC1(C)[C@H]2CC[C@@H](C[N+](C)(C)Cc3ccc(-c4cccc(Cl)c4)cc3)[C@@H]1C2	6.30
NCCCC[C@H](NC(=O)[C@@H]1Cc2ccccc2CN1C(=O)CCC(=O)c1ccccc1)C(=O)NCC(c1ccccc1)c1ccccc1	7.40
CC1(C)[C@H]2CC=C(C[N+](C)(C)Cc3ccc(-c4ccccc4O)cc3)[C@@H]1C2	5.70

Data point: `CC1(C)[C@H]2CC(C[N+](C)(C)Cc3ccc(-c4cccc(Cl)c4)cc3)=C[C@@H]1C2` ; pKi = 6.30

Kindly note the recorded pKi for `CC1(C)[C@H]2CC=C(C[N+](C)(C)Cc3ccc(-c4c(Cl)cccc4Cl)cc3)[C@@H]1C2` , which is 6.40

====

Entries and their measured Ratio follow.
Target: C-X-C chemokine receptor type 3 (Homo sapiens) (UniProt P49682)
Experiment: Agonist activity at CXCR3 expressed in HEK293 cells by [35S]GTPgamma binding assay relative to CXCL11
Format: functional, cell-based

A selection of reference data follows.
Compound smiles	Test system	Result
CC1(C)[C@H]2CC=C(C[N+](C)(C)Cc3ccc(-c4cccc(Cl)c4)c(Cl)c3)[C@@H]1C2	C-X-C chemokine receptor type 3 (Homo sapiens) (UniProt P49682)	0.03
CC1(C)[C@H]2CC=C(C[N+](C)(C)Cc3ccc(-c4cccc(Cl)c4)cc3)[C@@H]1C2	C-X-C chemokine receptor type 3 (Homo sapiens) (UniProt P49682)	0.05
CC1(C)[C@@H]2CC=C(C[N+](C)(C)Cc3ccc(-c4cccc(Cl)c4)cc3)[C@H]1C2	C-X-C chemokine receptor type 3 (Homo sapiens) (UniProt P49682)	0.05
CC1(C)[C@H]2CC[C@@H](C[N+](C)(C)Cc3ccc(-c4cccc(Cl)c4)cc3)[C@@H]1C2	C-X-C chemokine receptor type 3 (Homo sapiens) (UniProt P49682)	0.07

Reported Ratio of `CC1(C)[C@H]2CC(C[N+](C)(C)Cc3ccc(-c4cccc(Cl)c4)cc3)=C[C@@H]1C2` : 0.07

Reported Ratio of `CC1(C)[C@H]2CC=C(C[N+](C)(C)Cc3ccc(-c4ccccc4F)cc3)[C@@H]1C2` : 0.2

Ratio reported for this compound `CC1(C)[C@H]2CC=C(C[N+](C)(C)Cc3ccc(-c4c(Cl)cccc4Cl)cc3)[C@@H]1C2` : 0.42

Lab note: `CC1(C)[C@H]2CC=C(C[N+](C)(C)Cc3ccc(Cl)cc3)[C@@H]1C2` gave Ratio of 0.02

====

System: C-X-C chemokine receptor type 3 (Homo sapiens) | Read-out: Ki
Sequence (P49682 whole entry): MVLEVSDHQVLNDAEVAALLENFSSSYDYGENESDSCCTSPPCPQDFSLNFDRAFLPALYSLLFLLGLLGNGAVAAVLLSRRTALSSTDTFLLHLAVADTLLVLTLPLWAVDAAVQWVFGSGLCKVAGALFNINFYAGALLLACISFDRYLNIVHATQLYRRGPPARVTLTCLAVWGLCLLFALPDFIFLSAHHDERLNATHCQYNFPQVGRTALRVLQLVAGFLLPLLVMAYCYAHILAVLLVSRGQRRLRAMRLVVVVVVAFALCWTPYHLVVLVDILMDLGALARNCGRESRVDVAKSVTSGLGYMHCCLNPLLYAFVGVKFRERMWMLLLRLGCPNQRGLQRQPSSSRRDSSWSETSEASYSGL
Express it in nM; write the number only.

See these solved cases before continuing.
Compound smiles	Test system	Property label	Recorded number
CC1(C)[C@H]2CC=C(C[N+](C)(C)Cc3ccc(-c4ccccc4Br)cc3)[C@@H]1C2	C-X-C chemokine receptor type 3 (Homo sapiens)	Ki	63.1
CC1(C)[C@H]2CC=C(C[N+](C)(C)Cc3ccc(-c4ccccc4Cl)c(Cl)c3)[C@@H]1C2	C-X-C chemokine receptor type 3 (Homo sapiens)	Ki	200
CC1(C)[C@H]2CC=C(C[N+](C)(C)Cc3ccc4c(c3)Cc3ccccc3-4)[C@@H]1C2	C-X-C chemokine receptor type 3 (Homo sapiens)	Ki	398
CC1(C)[C@H]2CC(C[N+](C)(C)Cc3ccc(-c4ccccc4I)cc3)=C[C@@H]1C2	C-X-C chemokine receptor type 3 (Homo sapiens)	Ki	200

Please find the next compound below.
For record `CC1(C)[C@H]2CC=C(C[N+](C)(C)Cc3ccc(-c4ccccc4)cc3)[C@@H]1C2` the listed Ki is 631

====

Target: C-X-C chemokine receptor type 3 (Homo sapiens) (UniProt P49682)
Assay: Agonist activity at CXCR3 expressed in HEK293 cells by [35S]GTPgamma binding assay relative to CXCL11
Format: functional, cell-based
# strict inequality: Ratio < 0.2 yields met, everything else yields not met

Compound smiles	Class assignment
CC1(C)[C@@H]2CC=C(C[N+](C)(C)Cc3ccc(-c4ccccc4I)cc3)[C@H]1C2	not met
CC1(C)[C@H]2CC=C(C[N+](C)(C)Cc3ccc(-c4ccccc4Cl)c(Cl)c3)[C@@H]1C2	not met
CC1(C)[C@H]2CC=C(C[N+](C)(C)Cc3ccccc3)[C@@H]1C2	met
CC1(C)[C@H]2CC=C(C[N+](C)(C)Cc3ccc(-c4cc(Cl)ccc4Cl)cc3)[C@@H]1C2	not met
CC1(C)[C@H]2CC=C(C[N+](C)(C)Cc3ccc(-c4ccccc4)c(Cl)c3)[C@@H]1C2	met
CC1(C)[C@H]2CC=C(C[N+](C)(C)Cc3ccc(-c4ccccc4Cl)cc3)[C@@H]1C2	not met
Cc1cccc(C)c1-c1ccc(C[N+](C)(C)CC2=CC[C@H]3C[C@@H]2C3(C)C)cc1	met
CC1(C)[C@H]2CC=C(C[N+](C)(C)Cc3ccc(-c4ccccc4)cc3)[C@@H]1C2	met
NCCCC[C@H](NC(=O)[C@@H]1Cc2ccccc2CN1C(=O)CCC(=O)c1ccccc1)C(=O)NCC(c1ccccc1)c1ccccc1	not met
CC1(C)[C@H]2CC(C[N+](C)(C)Cc3ccc(-c4ccccc4I)cc3)=C[C@@H]1C2	not met

hey, is Ratio for `CC1(C)[C@H]2CC=C(C[N+](C)(C)Cc3ccc(-c4ccccc4I)cc3)[C@@H]1C2` lower than 0.2 or not?
not met

Consider the compound `CC1(C)[C@H]2CC=C(C[N+](C)(C)Cc3ccc(-c4ccccc4O)cc3)[C@@H]1C2` . Is its Ratio strictly less than 0.2?
met

Does this compound meet the criterion Ratio < 0.2? `CCOc1ccc(-n2c([C@@H](C)N(Cc3cccnc3)C(=O)Cc3ccc(F)c(C(F)(F)F)c3)nc3ncccc3c2=O)cc1`
met

In plain terms, does `CC1(C)[C@H]2CC=C(C[N+](C)(C)Cc3ccc(-c4cccc(Cl)c4Cl)cc3)[C@@H]1C2` come in under 0.2 for Ratio?
not met

Here's an entry: `CC1(C)[C@H]2CC=C(C[N+](C)(C)Cc3ccc4c(c3)Cc3ccccc3-4)[C@@H]1C2` . Is its Ratio below 0.2?
met

====

Entries with their measured pKi, system C-X-C chemokine receptor type 3 (Homo sapiens):
In simple prose, pKi is minus the logarithm base ten of a concentration in moles per litre.

Compound smiles	pKi
CC1(C)[C@H]2CC[C@@H](C[N+](C)(C)Cc3ccc(-c4ccccc4I)cc3)[C@@H]1C2	7.00

Record `Cc1cccc(C)c1-c1ccc(C[N+](C)(C)CC2=CC[C@H]3C[C@@H]2C3(C)C)cc1` ; system C-X-C chemokine receptor type 3 (Homo sapiens); pKi = 6.00

Field pKi (C-X-C chemokine receptor type 3 (Homo sapiens)), entry `CC1(C)[C@H]2CC=C(C[N+](C)(C)Cc3ccc(-c4cccc(Cl)c4)c(Cl)c3)[C@@H]1C2` : 6.30
